All figures here come from ChEMBL document CHEMBL5500326.

system: Escherichia coli; assay: Ratio of kd for displacement of fluorescent tracer 3'-chloro-N-(2-(3-(3',6'-dihydroxy-3-oxo-3H-spiro[isobenzofuran-1,9'-xanthen]-5-yl)thioureido)ethyl)-4'-(alpha-D-mannopyranosyloxy)biphenyl-4-carboxamide from Escherichia coli F18 full-length FimH expressed in Escherichia coli HM125 to kd for displacement of fluorescent tracer 3'-chloro-N-(2-(3-(3',6'-dihydroxy-3-oxo-3H-spiro[isobenzofuran-1,9'-xanthen]-5-yl)thioureido)ethyl)-4'-(alpha-D-mannopyranosyloxy)biphenyl-4-carboxamide from Escherichia coli F18 FimH lectin domain expressed in Escherichia coli HM125
Ratio values by entry
Provide a numeric answer; units are not to be included.

Solved entries (count: 4):
- given_smiles: "OC[C@H]1OC[C@H](OCCCc2ccccc2)[C@@H](O)[C@@H](O)[C@@H]1O"
  numeric_result: 17.8
- given_smiles: "NC(=O)c1ccc(-c2ccc(CO[C@H]3CO[C@H](CO)[C@@H](O)[C@H](O)[C@@H]3O)cc2)cc1"
  numeric_result: 42.7
- given_smiles: "N#Cc1ccc(-c2ccc(CO[C@H]3CO[C@H](CO)[C@@H](O)[C@H](O)[C@@H]3O)cc2)cc1"
  numeric_result: 43.8
- given_smiles: "OC[C@H]1OC[C@H](OCc2ccccc2)[C@@H](O)[C@@H](O)[C@@H]1O"
  numeric_result: 5.2

# next molecule below
Task: // map CCCCCCCO[C@H]1CO[C@H](CO)[C@@H](O)[C@H](O)[C@@H]1O to recorded Ratio (system: Escherichia coli)
Result: 16.4

###

biological target: UniProtKB P08191; assay: Displacement of fluorescent tracer 3'-chloro-N-(2-(3-(3',6'-dihydroxy-3-oxo-3H-spiro[isobenzofuran-1,9'-xanthen]-5-yl)thioureido)ethyl)-4'-(alpha-D-mannopyranosyloxy)biphenyl-4-carboxamide from Escherichia coli F18 full-length FimH expressed in Escherichia coli HM125 assessed as dissociation constant incubated for 24 hrs by competitive binding based fluorescence polarization assay; settings: read-out: Kd
property_name: Kd (µM)
Reply with just the number (in µM).

- given_smiles: "CCCCCCCO[C@H]1CO[C@H](CO)[C@@H](O)[C@H](O)[C@@H]1O"
  tgt: "UniProtKB P08191"
  Kd (µM): 31.8

Task: Endpoint output: Kd of NC(=O)c1ccc(-c2ccc(O[C@H]3O[C@H](CO)[C@@H](O)[C@H](O)[C@@H]3O)cc2)cc1 . Value?
Result: 0.24

Task: Try this compound next: N#Cc1ccc(-c2ccc(CO[C@H]3CO[C@H](CO)[C@@H](O)[C@H](O)[C@@H]3O)cc2)cc1
Result: 63.1

###

molecular target: Type 1 fimbrin D-mannose specific adhesin (Escherichia coli K-12, UniProt P08191); test: Displacement of fluorescent tracer 3'-chloro-N-(2-(3-(3',6'-dihydroxy-3-oxo-3H-spiro[isobenzofuran-1,9'-xanthen]-5-yl)thioureido)ethyl)-4'-(alpha-D-mannopyranosyloxy)biphenyl-4-carboxamide from Escherichia coli F18 full-length FimH expressed in Escherichia coli HM125 assessed as dissociation constant incubated for 24 hrs by competitive binding based fluorescence polarization assay; conditions: read-out: Kd
Sequence (P08191 whole entry): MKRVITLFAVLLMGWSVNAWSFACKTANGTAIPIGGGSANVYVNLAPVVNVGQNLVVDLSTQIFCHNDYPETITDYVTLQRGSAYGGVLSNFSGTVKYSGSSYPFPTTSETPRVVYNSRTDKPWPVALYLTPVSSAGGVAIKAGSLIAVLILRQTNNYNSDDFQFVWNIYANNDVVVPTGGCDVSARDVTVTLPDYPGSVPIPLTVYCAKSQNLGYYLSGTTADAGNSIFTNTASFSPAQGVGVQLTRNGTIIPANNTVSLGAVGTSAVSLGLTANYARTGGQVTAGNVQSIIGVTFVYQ
Labelling: Kd reported below 40 µM becomes satisfied; at or above becomes not satisfied.

// known answers, use as guide
- given_smiles: "NC(=O)c1ccc(-c2ccc(CO[C@H]3CO[C@H](CO)[C@@H](O)[C@H](O)[C@@H]3O)c(Cl)c2)cc1"
  tgt: "Type 1 fimbrin D-mannose specific adhesin (Escherichia coli K-12, UniProt P08191)"
  classification: "not satisfied"
- given_smiles: "OC[C@H]1OC[C@H](OCc2ccccc2)[C@@H](O)[C@@H](O)[C@@H]1O"
  tgt: "Type 1 fimbrin D-mannose specific adhesin (Escherichia coli K-12, UniProt P08191)"
  classification: "not satisfied"
- given_smiles: "NC(=O)c1ccc(-c2ccc(O[C@H]3O[C@H](CO)[C@@H](O)[C@H](O)[C@@H]3O)c(Cl)c2)cc1"
  tgt: "Type 1 fimbrin D-mannose specific adhesin (Escherichia coli K-12, UniProt P08191)"
  classification: "satisfied"
- given_smiles: "N#Cc1cccc(-c2ccc(CO[C@H]3CO[C@H](CO)[C@@H](O)[C@H](O)[C@@H]3O)c(Cl)c2)c1"
  tgt: "Type 1 fimbrin D-mannose specific adhesin (Escherichia coli K-12, UniProt P08191)"
  classification: "satisfied"
- given_smiles: "N#Cc1ccc(-c2ccc(CO[C@H]3CO[C@H](CO)[C@@H](O)[C@H](O)[C@@H]3O)c(Cl)c2)cc1"
  tgt: "Type 1 fimbrin D-mannose specific adhesin (Escherichia coli K-12, UniProt P08191)"
  classification: "satisfied"

Task: Check if Kd falls below 40 µM for OC[C@H]1O[C@H](Oc2ccc(-c3ccccc3)cc2Cl)[C@@H](O)[C@@H](O)[C@@H]1O .
Result: satisfied

Task: Moving on to the next compound: N#Cc1ccc(-c2ccc(O[C@H]3O[C@H](CO)[C@@H](O)[C@H](O)[C@@H]3O)cc2)cc1
Result: satisfied

Task: Now consider OC[C@H]1OC[C@H](Oc2ccc(-c3ccccc3)cc2Cl)[C@@H](O)[C@@H](O)[C@@H]1O and answer again.
Result: satisfied

###

test system: Escherichia coli; test: Ratio of kd for displacement of fluorescent tracer 3'-chloro-N-(2-(3-(3',6'-dihydroxy-3-oxo-3H-spiro[isobenzofuran-1,9'-xanthen]-5-yl)thioureido)ethyl)-4'-(alpha-D-mannopyranosyloxy)biphenyl-4-carboxamide from Escherichia coli F18 full-length FimH expressed in Escherichia coli HM125 to kd for displacement of fluorescent tracer 3'-chloro-N-(2-(3-(3',6'-dihydroxy-3-oxo-3H-spiro[isobenzofuran-1,9'-xanthen]-5-yl)thioureido)ethyl)-4'-(alpha-D-mannopyranosyloxy)biphenyl-4-carboxamide from Escherichia coli F18 FimH lectin domain expressed in Escherichia coli HM125
property_name: Ratio

Solved entries (count: 3):
- given_smiles: "NC(=O)c1ccc(-c2ccc(CO[C@H]3CO[C@H](CO)[C@@H](O)[C@H](O)[C@@H]3O)c(Cl)c2)cc1"
  Ratio: 37.6
- given_smiles: "OC[C@H]1OC[C@H](OCc2ccc(-c3ccccc3)cc2)[C@@H](O)[C@@H](O)[C@@H]1O"
  Ratio: 19.3
- given_smiles: "N#Cc1cccc(-c2ccc(CO[C@H]3CO[C@H](CO)[C@@H](O)[C@H](O)[C@@H]3O)c(Cl)c2)c1"
  Ratio: 24.7

With those in mind, consider the next compound.
Task: Record N#Cc1ccc(-c2ccc(CO[C@H]3CO[C@H](CO)[C@@H](O)[C@H](O)[C@@H]3O)c(Cl)c2)cc1 : what is its Ratio with Escherichia coli?
Result: 29.1

###

experiment: Displacement of fluorescent tracer 3'-chloro-N-(2-(3-(3',6'-dihydroxy-3-oxo-3H-spiro[isobenzofuran-1,9'-xanthen]-5-yl)thioureido)ethyl)-4'-(alpha-D-mannopyranosyloxy)biphenyl-4-carboxamide from Escherichia coli F18 FimH […] expressed in Escherichia coli HM125 assessed as dissociation constant incubated for 24 hrs by competitive binding based fluorescence polarization assay; conditions: read-out: Kd
Labelling: Kd reported below 100 nM becomes Yes; at or above becomes No.

- given_smiles: "NC(=O)c1ccc(-c2ccc(O[C@H]3O[C@H](CO)[C@@H](O)[C@H](O)[C@@H]3O)c(Cl)c2)cc1"
  classification: "Yes"

Now consider a different molecule.
Task: Here's an entry: N#Cc1ccc(-c2ccc(O[C@H]3O[C@H](CO)[C@@H](O)[C@H](O)[C@@H]3O)c(Cl)c2)cc1 . Is its Kd below 100 nM?
Result: Yes

###

test: Displacement of fluorescent tracer 3'-chloro-N-(2-(3-(3',6'-dihydroxy-3-oxo-3H-spiro[isobenzofuran-1,9'-xanthen]-5-yl)thioureido)ethyl)-4'-(alpha-D-mannopyranosyloxy)biphenyl-4-carboxamide from Escherichia coli F18 FimH […] expressed in Escherichia coli HM125 assessed as dissociation constant incubated for 24 hrs by competitive binding based fluorescence polarization assay; details: read-out: Kd
Collected pKd values appear next to each entry.
A value of pKd is the negative decimal logarithm of a concentration given in moles per litre.

Here are 10 molecules together with their reported answers.
- given_smiles: "N#Cc1cccc(-c2ccc(CO[C@H]3CO[C@H](CO)[C@@H](O)[C@H](O)[C@@H]3O)c(Cl)c2)c1"
  property_name: "pKd"
  numeric_result: 5.84
- given_smiles: "OC[C@H]1OC[C@H](OCCCc2ccccc2)[C@@H](O)[C@@H](O)[C@@H]1O"
  property_name: "pKd"
  numeric_result: 5.15
- given_smiles: "OC[C@H]1OC[C@H](OCc2ccccc2)[C@@H](O)[C@@H](O)[C@@H]1O"
  property_name: "pKd"
  numeric_result: 4.10
- given_smiles: "NC(=O)c1ccc(-c2ccc(CO[C@H]3CO[C@H](CO)[C@@H](O)[C@H](O)[C@@H]3O)c(Cl)c2)cc1"
  property_name: "pKd"
  numeric_result: 5.80
- given_smiles: "NC(=O)c1ccc(-c2ccc(CO[C@H]3CO[C@H](CO)[C@@H](O)[C@H](O)[C@@H]3O)cc2)cc1"
  property_name: "pKd"
  numeric_result: 5.57
- given_smiles: "OC[C@H]1O[C@H](Oc2ccc(-c3ccccc3)cc2Cl)[C@@H](O)[C@@H](O)[C@@H]1O"
  property_name: "pKd"
  numeric_result: 8.55
- given_smiles: "N#Cc1ccc(-c2ccc(O[C@H]3CO[C@H](CO)[C@@H](O)[C@H](O)[C@@H]3O)cc2)cc1"
  property_name: "pKd"
  numeric_result: 6.59
- given_smiles: "CCCCCCCO[C@H]1O[C@H](CO)[C@@H](O)[C@H](O)[C@@H]1O"
  property_name: "pKd"
  numeric_result: 7.55
- given_smiles: "N#Cc1ccc(-c2ccc(CO[C@H]3CO[C@H](CO)[C@@H](O)[C@H](O)[C@@H]3O)c(Cl)c2)cc1"
  property_name: "pKd"
  numeric_result: 5.89
- given_smiles: "CCCCCCCO[C@H]1CO[C@H](CO)[C@@H](O)[C@H](O)[C@@H]1O"
  property_name: "pKd"
  numeric_result: 5.71

Could you now look at the following molecule, please?
Task: Using the record for N#Cc1ccc(-c2ccc(O[C@H]3CO[C@H](CO)[C@@H](O)[C@H](O)[C@@H]3O)c(Cl)c2)cc1 , report its pKd.
Result: 7.00
